B1: SETD8 (parent)
chain: GKQAPRKKAQGKTQQNRKLTDFYP

variants of: B1; assay: protein stability index of a GFP-peptide fusion (GPS, HEK-293T) (PSI 1-6); higher = more stable; conditions: c terminus: a fixed tail appended;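 note: lentivirally expressed fusions sorted by FACS into six bins by GFP to DsRed ratio, PSI derived from sequencing read proportions per bin multiplied by bin number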
Catalogue of protein stability index readings, one per entry.
No unit in the answer, only the number.

{"columns": ["Mutation Notation", "protein stability index"],
 "data": [
  ["P5C", 1.99],
  ["K7N", 2.21],
  ["N16M", 3.37],
  ["Q10Y", 3.22],
  ["L19A", 4.54],
  ["G11Y", 3.21],
  ["T13M", 2.16],
  ["G1V", 3.12]
]}

Asked: What does the data say about its protein stability index? Entry: "Q10E"
Given back: 2.78

Asked: And "R6C" ?
Given back: 2.82

Asked: And "P24R" ?
Given back: 2.67

Asked: And "G1F" ?
Given back: 3.39

Asked: And "K2C" ?
Given back: 2.92

Asked: And "K18Y" ?
Given back: 2.76

Asked: And "K12D" ?
Given back: 2.51

Asked: And "Q10P" ?
Given back: 2.65
